Data provenance is patent EP2818471A1.

Test system: beta-TC6 cells
run.description: Insulin HTRF assay, relative activity Ar normalized to sunitinib
Type: cell-based
assay.setup: Mus musculus, normalized to positive control sunitinib (5 µM = 100%), Table 10
property.label: Emax

mol.smiles: Clc1ccccc1-c1ccc2ncc(-c3cccs3)n2n1
property.label: Emax
measurement: 10 to 20%
--
mol.smiles: COc1cc(-c2ccc3ncc(-c4ccc(F)c(Cl)c4)n3n2)cc(OC)c1OC
property.label: Emax
measurement: 10 to 20%
--
mol.smiles: COc1cc(-c2cnc3cnc(-c4ccc(N5CCN(C)CC5)nc4)cn23)cc(OC)c1OC
property.label: Emax
measurement: 20 to 50%
--
mol.smiles: Clc1ccc(-c2cnc3cnc(-c4ccncc4)cn23)cc1
property.label: Emax
measurement: 20 to 50%
--
mol.smiles: CCOc1cccc(-c2cn3c(-c4ccc(O)c(OC)c4)cnc3cn2)c1
property.label: Emax
measurement: 50 to 100%

**Query** Given the entry "CC(C)Oc1cccc(-c2cn3c(-c4cccc(CO)c4)cnc3cn2)c1" , what Emax was observed with beta-TC6 cells?
**Result** 20 to 50%

**Query** Query the reported Emax for beta-TC6 cells; item: "Clc1cccc(-c2nnc3ccc(-c4cncc5ccccc45)cn23)c1"
**Result** 50 to 100%

**Query** I'm curious: which Emax was measured for "CN(C)c1ccccc1-c1cn2c(-c3cccs3)cnc2cn1" tested on beta-TC6 cells?
**Result** 20 to 50%
